- protocol_summary: Tacrolimus blood pharmacokinetics without and with omeprazole 20 mg or famotidine 20 mg in kidney transplant patients (CMIA, non-compartmental analysis)
- Type: in vivo, human
- run_parameters: human, whole blood, oral, group I, 6 h, OM 20 mg (day 2); read-out: C6
measurement_kind: concentration at 6 h (ng/mL)
Note: unit ng/mL is implicit; provide only the numeric part.

In: Query (compound): C=CC[C@@H]1/C=C(\C)C[C@H](C)C[C@H](OC)[C@H]2O[C@@](O)(C(=O)C(=O)N3CCCC[C@H]3C(=O)O[C@H](/C(C)=C/[C@@H]3CC[C@@H](O)[C@H](OC)C3)[C@H](C)[C@@H](O)CC1=O)[C@H](C)C[C@@H]2OC [tacrolimus] ; field requested: concentration at 6 h
Out: 10.3
